The measured values listed here are drawn from patent US20100221763A1.

Target: Rat recombinant α2,3(O)ST (Rattus norvegicus)
Construct: purchased Calbiochem
Sequence (Q11205 1-350): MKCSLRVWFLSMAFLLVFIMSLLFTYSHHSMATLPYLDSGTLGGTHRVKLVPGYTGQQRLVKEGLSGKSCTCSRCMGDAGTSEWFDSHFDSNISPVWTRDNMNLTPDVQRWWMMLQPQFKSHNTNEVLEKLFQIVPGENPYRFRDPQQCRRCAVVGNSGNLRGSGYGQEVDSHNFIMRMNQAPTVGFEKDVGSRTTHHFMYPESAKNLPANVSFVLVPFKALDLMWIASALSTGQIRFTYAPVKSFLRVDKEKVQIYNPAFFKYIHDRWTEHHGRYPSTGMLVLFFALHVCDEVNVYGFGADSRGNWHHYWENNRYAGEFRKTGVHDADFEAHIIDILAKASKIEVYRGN
Experiment: Sialyltransferase assay with cloned α2,3(O)ST
Format: biochemical
Settings: Table II; acceptor 0.75 mM; relative to Galβ1,3GalNAcα-O-Bn
Quick reference: Sialyltransferase activity (%) Cloned α2,3(O)ST of the listed items.

>>> observed("COC[C@H]1O[C@H](OCc2ccccc2)[C@H](NC(C)=O)[C@@H](O[C@@H]2O[C@H](CO)[C@H](O)[C@H](O)[C@H]2O)[C@H]1O")
"107.6^11%"
>>> observed("CO[C@H]1[C@@H](O)[C@@H](CO)O[C@@H](O[C@H]2[C@@H](O)[C@@H](CO)O[C@H](OCc3ccccc3)[C@@H]2NC(C)=O)[C@@H]1O")
"70.4%"
>>> observed("CO[C@@H]1[C@H](O)[C@@H](O)[C@H](O[C@H]2[C@@H](O)[C@@H](CO)O[C@H](OCc3ccccc3)[C@@H]2NC(C)=O)O[C@@H]1CO")
"104.6^9%"
>>> observed("CC(=O)N[C@H]1[C@@H](OCc2ccccc2)O[C@H](CO)[C@H](O)[C@@H]1O[C@@H]1O[C@H](CO)[C@H](O)[C@H](O)[C@H]1O")
"100.0^8%"
>>> observed("CC(=O)N[C@H]1[C@@H](OCc2ccccc2)O[C@H](CO)[C@H](O)[C@@H]1O[C@@H]1O[C@H](CO)[C@H](F)[C@H](O)[C@H]1O")
"104.6^10%"

Continue with the compound presented below.
Exam item: For Rat recombinant α2,3(O)ST (Rattus norvegicus), provide Sialyltransferase activity (%) Cloned α2,3(O)ST of COC[C@H]1O[C@H](OCc2ccccc2)[C@H](NC(C)=O)[C@@H](O[C@@H]2O[C@H](CO)[C@H](O)[C@H](OC)[C@H]2O)[C@H]1O please.
Marked response: 55.9%
